Biological target: panel of 255 wild-type kinases (Homo sapiens)
Sequence (Q13188 1-491): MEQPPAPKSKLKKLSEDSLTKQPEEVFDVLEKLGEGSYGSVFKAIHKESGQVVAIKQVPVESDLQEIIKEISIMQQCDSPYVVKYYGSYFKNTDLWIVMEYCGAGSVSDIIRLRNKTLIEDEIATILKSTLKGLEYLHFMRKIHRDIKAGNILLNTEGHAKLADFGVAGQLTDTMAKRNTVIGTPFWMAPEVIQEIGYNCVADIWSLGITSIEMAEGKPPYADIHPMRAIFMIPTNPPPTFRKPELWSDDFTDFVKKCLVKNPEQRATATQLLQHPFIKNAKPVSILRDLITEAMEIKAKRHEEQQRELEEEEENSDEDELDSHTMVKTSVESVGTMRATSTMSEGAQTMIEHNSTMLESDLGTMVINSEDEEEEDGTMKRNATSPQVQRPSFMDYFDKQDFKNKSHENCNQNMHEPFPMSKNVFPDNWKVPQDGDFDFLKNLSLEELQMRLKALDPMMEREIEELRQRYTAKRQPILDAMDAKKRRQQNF
Assay: Kinase panel profiling at 1 µmol/L (MSA or IMAP), percentage inhibition
Assay type: biochemical
Conditions: MST2; 1 µmol/L single concentration; read-out: %-inhibition, MST2
parameter: inhibition at 1 µM (%)

(I) C[C@H](Nc1ncnc2nc[nH]c12)c1cc2cccc(Cl)c2c(=O)n1-c1ccccc1
(II) COc1cc2ncnc(Nc3ccc(F)c(Cl)c3)c2cc1NC(=O)/C=C/CN1CCCCC1
// query Could you kindly indicate whether I or II has the higher inhibition at 1 µM value? Lab log: write the label of the selected item as the result.
// result I

###

Biological target: UniProtKB Q15139
Sequence (Q15139 whole entry): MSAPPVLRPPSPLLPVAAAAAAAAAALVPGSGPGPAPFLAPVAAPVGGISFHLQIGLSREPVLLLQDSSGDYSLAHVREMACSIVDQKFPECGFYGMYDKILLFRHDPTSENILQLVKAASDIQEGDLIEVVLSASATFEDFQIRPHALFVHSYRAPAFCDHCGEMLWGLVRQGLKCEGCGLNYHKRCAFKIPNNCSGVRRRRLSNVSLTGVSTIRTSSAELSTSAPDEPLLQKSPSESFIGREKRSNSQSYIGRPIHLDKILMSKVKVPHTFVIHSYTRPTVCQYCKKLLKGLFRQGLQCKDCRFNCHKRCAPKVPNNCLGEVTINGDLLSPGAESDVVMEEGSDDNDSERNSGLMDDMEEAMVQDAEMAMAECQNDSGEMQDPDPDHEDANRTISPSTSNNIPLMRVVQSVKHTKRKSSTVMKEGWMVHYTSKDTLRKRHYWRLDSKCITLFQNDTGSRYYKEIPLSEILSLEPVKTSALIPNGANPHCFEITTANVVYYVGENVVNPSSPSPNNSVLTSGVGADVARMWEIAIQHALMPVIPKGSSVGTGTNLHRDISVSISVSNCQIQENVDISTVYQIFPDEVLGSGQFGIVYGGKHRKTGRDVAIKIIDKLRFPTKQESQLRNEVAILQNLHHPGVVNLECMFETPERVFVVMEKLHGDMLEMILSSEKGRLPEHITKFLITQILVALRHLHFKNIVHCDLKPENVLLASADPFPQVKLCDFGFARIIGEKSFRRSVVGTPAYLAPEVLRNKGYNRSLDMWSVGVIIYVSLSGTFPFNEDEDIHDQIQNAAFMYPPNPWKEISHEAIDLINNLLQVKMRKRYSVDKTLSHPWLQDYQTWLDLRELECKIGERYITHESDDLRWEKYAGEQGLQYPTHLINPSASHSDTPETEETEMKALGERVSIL
Assay: Kinase panel profiling at 1 µmol/L (MSA or IMAP), percentage inhibition
Type: biochemical
Conditions: kinase PKD1; 1 µmol/L single concentration; read-out: %-inhibition at 1 µmol/L, PKD1
parameter: inhibition at 1 µM (%)

mol | study_system | inhibition at 1 µM / %
CCn1c(=O)c(-c2cc(NC(=O)Nc3ccccc3)c(F)cc2Br)cc2cnc(NC)cc21 | UniProtKB Q15139 | 15
C[C@H]1Oc2cc(cnc2N)-c2c(nn(C)c2C#N)CN(C)C(=O)c2ccc(F)cc21 | UniProtKB Q15139 | -0.468
Cn1cc(-c2cc3c(N4CCN(c5ncc([C@@](C)(N)c6ccc(F)cc6)cn5)CC4)ncnn3c2)cn1 | UniProtKB Q15139 | 6.4

(a) Cn1cnc2c(F)c(Nc3ccc(Br)cc3F)c(C(=O)NOCCO)cc21
(b) CO[C@]1(C(=O)N[C@@H](C)c2ccc(-n3cc(F)cn3)nc2)CC[C@H](c2nc(C)cc(Nc3cc(C)[nH]n3)n2)CC1
(c) O=C(Nc1cnn2ccc(N3CCC[C@@H]3c3cc(F)ccc3F)nc12)N1CC[C@H](O)C1
// query Arrange the 3 entries by inhibition at 1 µM so the values rise. Write the labels in rank order as requested.
// result a, c, b
(a: -1.69%, c: 0.148%, b: 0.3%)

###

Biological target: panel of 255 wild-type kinases (Homo sapiens, UniProt Q15208)
Sequence (Q15208 whole entry): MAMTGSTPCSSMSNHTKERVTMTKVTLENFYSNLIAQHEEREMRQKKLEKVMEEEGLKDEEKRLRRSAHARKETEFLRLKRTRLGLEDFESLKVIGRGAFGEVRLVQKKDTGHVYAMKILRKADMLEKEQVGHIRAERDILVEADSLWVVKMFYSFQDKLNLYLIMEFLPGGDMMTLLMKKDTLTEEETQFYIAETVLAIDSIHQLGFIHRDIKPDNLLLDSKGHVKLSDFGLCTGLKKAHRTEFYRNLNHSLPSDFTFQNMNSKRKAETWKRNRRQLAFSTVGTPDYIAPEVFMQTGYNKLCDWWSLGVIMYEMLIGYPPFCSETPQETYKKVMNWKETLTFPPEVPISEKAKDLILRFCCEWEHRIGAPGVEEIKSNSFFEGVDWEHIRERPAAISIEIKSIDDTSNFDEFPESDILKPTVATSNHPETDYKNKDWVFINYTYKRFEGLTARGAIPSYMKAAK
Experiment: Kinase panel profiling at 1 µmol/L (MSA or IMAP), percentage inhibition
Type: biochemical
Details: NDR1; 1 µmol/L single concentration; read-out: %-inhibition, NDR1
parameter: inhibition at 1 µM (%)

Would you please look over these solved cases?
mol | inhibition at 1 µM, %
C[C@H]1Oc2cc(cnc2N)-c2c(nn(C)c2C#N)CN(C)C(=O)c2ccc(F)cc21 | 3.5
CCN1C(=O)N(c2c(F)c(OC)cc(OC)c2F)Cc2cnc3[nH]c(CN4CCOCC4)cc3c21 | -4.31

(P) O=C(Nc1cnn2ccc(N3CCC[C@@H]3c3cc(F)ccc3F)nc12)N1CC[C@H](O)C1
(Q) Cc1nc(NC(=O)N2CCC[C@H]2C(N)=O)sc1-c1ccnc(C(C)(C)C(F)(F)F)c1
(R) COc1cc2ncnc(Nc3ccc(F)c(Cl)c3)c2cc1NC(=O)/C=C/CN1CCCCC1
(S) Cc1cc(Nc2ncnc3ccc(NC4=NC(C)(C)CO4)cc23)ccc1Oc1ccn2ncnc2c1
// query Order field: inhibition at 1 µM | Direction: descending (largest first) # answer = labels listed in requested order
// result Q, R, S, P
